assay: Partitioning of active into washed safflower oil bodies (free oil / total oil extraction, HPLC or absorbance); type: physicochemical, safflower (Carthamus tinctorius); conditions: two-solvent loading, incubated overnight at 34-37° C. (CP 34-42° C.); average
parameter.measured: average % of the active added that was incorporated into the intact oil bodies (%)

Example compounds with recorded average % of the active added that was incorporated into the intact oil bodies:
• CCC(=O)O[C@]1(C(=O)CCl)[C@@H](C)C[C@H]2[C@@H]3CCC4=CC(=O)C=C[C@]4(C)[C@@]3(F)[C@@H](O)C[C@@]21C [clobetasol propionate] = 94.7
• CCCCNc1ccc(C(=O)OCCN(C)C)cc1 = 90.8

a: O=C1c2c(O)cccc2Cc2cccc(O)c21 [dithranol, 1,8-Dihydroxy-9(10H)-anthracenone]
b: O=C(O)Cc1ccccc1Nc1c(Cl)cccc1Cl
Asked: Identify the entry with the smaller average % of the active added that was incorporated into the intact oil bodies: a or b . Bench note: the answer is the label of the chosen record.
Given back: b
(b: 43.9%, a: 97.3%)
